Value source: patent US20110207740A1

Measurement Protocol: Aqueous solubility (buffers, pH dependence)
Assay type: physicochemical
Reported Conditions: aqueous buffer, pH 3, aqueous buffer, Buffer pH 3
Excerpt: As expected, solubility improves with ionization. […] This type of decrease in solubility is consistent with the formation of insoluble chloride salts. […] However, as shown in the Table 1 below, the A2a receptor antagonist compound described above has both low aqueous and non-aqueous solubility.
Property: solubility (µg/mL)

[[record]]
compound = "COCCOc1ccc(N2CCN(CCn3ncc4c3nc(N)n3nc(-c5ccco5)nc43)CC2)cc1 [Formula 1]"
observed_result = 105


====

Measurement Protocol: Non-aqueous solubility (ethanol, propylene glycol, soybean oil)
Format: physicochemical
Reported Conditions: ethanol, organic solvent or mixture
Property: solubility (µg/mL)

[[record]]
compound_string = "COCCOc1ccc(N2CCN(CCn3ncc4c3nc(N)n3nc(-c5ccco5)nc43)CC2)cc1"
observed_result = 100


====

Measurement Protocol: Aqueous solubility (buffers, pH dependence)
Type: physicochemical
Reported Conditions: aqueous buffer, pH 7.4, aqueous buffer, Buffer pH 7.4
Property: solubility

[[record]]
molecule = "COCCOc1ccc(N2CCN(CCn3ncc4c3nc(N)n3nc(-c5ccco5)nc43)CC2)cc1 [Formula 1]"
property = "solubility"
observed_result = "< 5 ng/mL"


====

Measurement Protocol: Aqueous solubility (buffers, pH dependence)
Assay type: physicochemical
Reported Conditions: aqueous buffer, pH 4, aqueous buffer, Buffer pH 4
Property: solubility

[[record]]
compound = "COCCOc1ccc(N2CCN(CCn3ncc4c3nc(N)n3nc(-c5ccco5)nc43)CC2)cc1 [Formula 1]"
observed_result = "< 2 µg/mL"


====

Measurement Protocol: Aqueous solubility (buffers, pH dependence)
Type: physicochemical
Reported Conditions: aqueous medium, pH 2, simulated gastric fluid, pH 2
Property: solubility (µg/mL)

[[record]]
compound_string = "COCCOc1ccc(N2CCN(CCn3ncc4c3nc(N)n3nc(-c5ccco5)nc43)CC2)cc1"
property = "solubility"
observed_result = 1000


====

Measurement Protocol: Aqueous solubility (buffers, pH dependence)
Assay type: physicochemical
Reported Conditions: 0.1 N HCl, pH 1, simulated gastric fluid, pH 1.0 (0.1 NHCL)
Property: solubility

[[record]]
compound_string = "COCCOc1ccc(N2CCN(CCn3ncc4c3nc(N)n3nc(-c5ccco5)nc43)CC2)cc1"
property = "solubility"
observed_result = "< 1000 µg/mL"

